Target: Leukotriene C4 synthase (Cavia porcellus, UniProt A6XA80);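 note: enzyme inhibition assay of leukotriene C4 synthase, using LTA4 as the substrate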; note: in other assays of this panel Not Active means under 50% inhibition at 10 µM
Sequence (A6XA80 whole entry): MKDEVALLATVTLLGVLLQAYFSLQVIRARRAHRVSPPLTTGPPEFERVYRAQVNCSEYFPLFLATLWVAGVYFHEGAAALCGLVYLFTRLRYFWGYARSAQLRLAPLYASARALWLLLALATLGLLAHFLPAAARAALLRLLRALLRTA
Assay type: tissue-based, Lung
reported_endpoint: IC50

CC(=O)Nc1ccc(O)cc1	Not Active
CCC1=C[C@@H]2CN(C1)Cc1c([nH]c3ccccc13)[C@@](C(=O)OC)(c1cc3c(cc1OC)N(C)[C@H]1[C@@](O)(C(=O)OC)[C@H](OC(C)=O)[C@]4(CC)C=CCN5CC[C@]31[C@@H]54)C2	Not Active
C/C=C/C[C@@H](C)[C@@H](O)[C@H]1C(=O)N[C@@H](CC)C(=O)N(C)CC(=O)N(C)[C@@H](CC(C)C)C(=O)N[C@@H](C(C)C)C(=O)N(C)[C@@H](CC(C)C)C(=O)N[C@@H](C)C(=O)N[C@H](C)C(=O)N(C)[C@@H](CC(C)C)C(=O)N(C)[C@@H](CC(C)C)C(=O)N(C)[C@@H](C(C)C)C(=O)N1C	Not Active

###

Assay: DRUGMATRIX: Calcium Channel Type L, Benzothiazepine radioligand binding (ligand: [3H] Diltiazem)
Format: cell membranes, Rattus norvegicus, Wistar, Brain, Membrane
Settings: Not Active = under 50% inhibition at 10 µM
reported_endpoint: IC50

O=NN(CCCl)C(=O)NCCCl	Not Active
C/C=C/C[C@@H](C)[C@@H](O)[C@H]1C(=O)N[C@@H](CC)C(=O)N(C)CC(=O)N(C)[C@@H](CC(C)C)C(=O)N[C@@H](C(C)C)C(=O)N(C)[C@@H](CC(C)C)C(=O)N[C@@H](C)C(=O)N[C@H](C)C(=O)N(C)[C@@H](CC(C)C)C(=O)N(C)[C@@H](CC(C)C)C(=O)N(C)[C@@H](C(C)C)C(=O)N1C	Not Active
Cn1c(=O)c2c(ncn2CC2OCCO2)n(C)c1=O	Not Active
C#C[C@]1(OC(C)=O)CC[C@H]2[C@@H]3CCC4=CC(=O)CC[C@@H]4[C@H]3CC[C@@]21C [NORETHINDRONE ACETATE]	Not Active
COP(=O)(OC)OC=C(Cl)Cl	Not Active

Here is the next item to consider.
Give the reported value of IC50 for this record: CC(C)c1nc(CN(C)C(=O)N[C@H](C(=O)N[C@@H](Cc2ccccc2)C[C@H](O)[C@H](Cc2ccccc2)NC(=O)OCc2cncs2)C(C)C)cs1
Not Active

###

Target: Receptor-type tyrosine-protein phosphatase C (Homo sapiens, UniProt P08575); note: in other assays of this panel Not Active means under 50% inhibition at 10 µM;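 note: inhibition of CD45 enzyme activity measured using DiFMUP as substrate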
Sequence (P08575 whole entry): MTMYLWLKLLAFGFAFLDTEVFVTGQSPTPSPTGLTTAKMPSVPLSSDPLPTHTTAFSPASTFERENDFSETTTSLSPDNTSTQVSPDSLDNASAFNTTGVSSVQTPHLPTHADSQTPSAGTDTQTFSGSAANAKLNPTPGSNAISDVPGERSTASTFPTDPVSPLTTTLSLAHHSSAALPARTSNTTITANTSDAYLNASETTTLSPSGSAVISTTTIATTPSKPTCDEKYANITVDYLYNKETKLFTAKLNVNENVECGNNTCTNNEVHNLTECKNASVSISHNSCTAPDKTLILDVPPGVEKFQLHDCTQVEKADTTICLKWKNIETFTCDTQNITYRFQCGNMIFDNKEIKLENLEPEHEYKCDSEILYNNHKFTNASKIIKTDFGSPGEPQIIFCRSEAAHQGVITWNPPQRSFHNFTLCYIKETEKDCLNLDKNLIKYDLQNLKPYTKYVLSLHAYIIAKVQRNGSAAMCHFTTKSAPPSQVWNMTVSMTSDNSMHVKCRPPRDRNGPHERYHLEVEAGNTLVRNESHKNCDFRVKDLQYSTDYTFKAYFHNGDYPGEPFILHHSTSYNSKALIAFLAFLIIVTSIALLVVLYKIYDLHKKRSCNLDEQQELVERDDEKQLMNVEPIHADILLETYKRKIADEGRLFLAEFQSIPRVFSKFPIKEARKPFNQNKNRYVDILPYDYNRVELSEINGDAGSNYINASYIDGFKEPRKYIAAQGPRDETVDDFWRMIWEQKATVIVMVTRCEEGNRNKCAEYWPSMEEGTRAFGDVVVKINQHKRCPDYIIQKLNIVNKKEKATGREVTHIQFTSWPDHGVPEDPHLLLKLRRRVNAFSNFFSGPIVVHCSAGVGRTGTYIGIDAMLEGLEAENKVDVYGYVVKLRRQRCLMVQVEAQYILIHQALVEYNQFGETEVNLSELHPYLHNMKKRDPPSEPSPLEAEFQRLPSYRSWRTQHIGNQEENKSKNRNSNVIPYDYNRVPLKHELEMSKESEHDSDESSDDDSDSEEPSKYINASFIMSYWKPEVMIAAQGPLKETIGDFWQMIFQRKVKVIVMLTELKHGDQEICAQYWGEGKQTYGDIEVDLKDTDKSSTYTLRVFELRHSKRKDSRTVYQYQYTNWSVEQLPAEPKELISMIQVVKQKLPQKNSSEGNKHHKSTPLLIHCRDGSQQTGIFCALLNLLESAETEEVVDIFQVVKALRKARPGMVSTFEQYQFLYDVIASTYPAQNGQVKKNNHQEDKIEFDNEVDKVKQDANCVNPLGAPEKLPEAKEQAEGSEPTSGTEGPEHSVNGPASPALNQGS
Parameters: species or system Escherichia coli
reported_endpoint: IC50

Cc1cc(=O)n(-c2ccccc2)n1C [ANTIPYRINE]	Not Active
CNC(=C[N+](=O)[O-])NCCSCc1ccc(CN(C)C)o1	Not Active
CCOC(=O)C(C)(C)Oc1ccc(Cl)cc1 [CLOFIBRATE]	Not Active
COc1cccc2c1C(=O)c1c(O)c3c(c(O)c1C2=O)C[C@@](O)(C(=O)CO)C[C@@H]3O[C@H]1C[C@H](N)[C@@H](O)[C@H](C)O1 [EPIRUBICIN]	Not Active
CC(C)NCC(O)COc1cccc2ccccc12 (stereo not drawn)	Not Active

Give the reported value of IC50 for this record: S=C=Nc1cccc2ccccc12 [1-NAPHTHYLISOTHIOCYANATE]
Not Active

Give the reported value of IC50 for this record: Cn1c(=O)c2c(ncn2CC2OCCO2)n(C)c1=O
Not Active

Give the reported value of IC50 for this record: Cc1nccn1CC1CCc2c(c3ccccc3n2C)C1=O (stereo not drawn)
Not Active

Give the reported value of IC50 for this record: C[C@]12CC[C@@H]3c4ccc(OC(=O)c5ccccc5)cc4CC[C@H]3[C@@H]1CC[C@@H]2O [ESTRADIOL BENZOATE]
Not Active

Give the reported value of IC50 for this record: Nc1c(CC(=O)O)cccc1C(=O)c1ccc(Br)cc1
Not Active

Give the reported value of IC50 for this record: O=C(N[C@H](CO)[C@H](O)c1ccc([N+](=O)[O-])cc1)C(Cl)Cl
Not Active

Give the reported value of IC50 for this record: CCCC(=O)Nc1ccc(OCC(O)CNC(C)C)c(C(C)=O)c1 (stereo not drawn)
Not Active

Give the reported value of IC50 for this record: CCN[C@@H]1C[C@H](N)[C@@H](O[C@H]2OC(CN)=CC[C@H]2N)[C@H](O)[C@H]1O[C@H]1OC[C@](C)(O)[C@H](NC)[C@H]1O
Not Active

Give the reported value of IC50 for this record: O=NN(CCCl)C(=O)NCCCl
Not Active
